// relative activity (initial increase in OD405) lookup, one value per entry
Molecular target: T1, Suc-AAPD-pNA
T1 chain: AAPD
Settings: scale: relative to the substrate with the highest activity
Form field (numeric): enter value without unit.

For orientation, consider the following solved cases.
# Protein, Data Value
data = [
    ("Glutamyl endopeptidase II sprE from Streptomyces griseus (protein) VLGGGAIYGGGSRCSAAFNVTKGGARYFVTAGHCTNISANWSASSGGSVVGVREGTSFPTNDYGIVRYTDGSSPAGTVDLYNGSTQDISSAANAVVGQAIKKSGSTTKVTSGTVTAVNVTVNYGDGPVYNMVRTTACSAGGDSGGAHFAGSVALGIHSGSSGCSGTAGSAIHQPVTEALSAYGVTVY", 0.158),
    ("Subtilisin Carlsberg from Bacillus licheniformis (protein) AQTVPYGIPLIKADKVQAQGFKGANVKVAVLDTGIQASHPDLNVVGGASFVAGEAYNTDGNGHGTHVAGTVAALDNTTGVLGVAPSVSLYAVKVLNSSGSGSYSGIVSGIEWATTNGMDVINMSLGGASGSTAMKQAVDNAYARGVVVVAAAGNSGSSGNTNTIGYPAKYDSVIAVGAVDSNSNRASFSSVGAELEVMAPGAGVYSTYPTNTYATLNGTSMASPHVAGAAALILSKHPNLSASQVRNRLSSTATYLGSSFYYGKGLINVEAAAQ", 0.0008),
    ("Serine protease bppB from Bacillus pumilus JA16 (protein) VVIGDDGRTKVTNTRVAPYNSIAYITFGGSSCTGTLIAPNKILTNGHCVYNTATRSYSAKGSVYPGMNDSTAVNGSANMTEFYVPSGYINTGASQYDFAVIKTDTNIGNTVGYRSIRQVTNLTGTTIKISGYPGDKMRSTGKVSQWEMSGPVTREDTNLAYYTIDTFSGNSGSAMLDQNQQIVGVHNAGYSNGTINGGPKATAAFVEFINYAKAQ", 0.0043),
    ("Serine protease from Nocardiopsis sp NRRL 18262 (protein) ADIIGGLAYTMGGRCSVGFAATNAAGQPGFVTAGHCGRVGTQVTIGNGRGVFEQSVFPGNDAAFVRGTSNFTLTNLVSRYNTGGYATVAGHNQAPIGSSVCRSGSTTGWHCGTIQARGQSVSYPEGTVTNMTRTTVCAEPGDSGGSYISGTQAQGVTSGGSGNCRTGGTTFYQEVTPMVNSWGVRLRT", 0.0028),
]

Param item = Subtilisin 309 variant from Bacillus clausii (protein) AQSVPWGIERVQAPAAHNRGLTGSGVKVAVLDTGISTHPDLRIRGGASFVPGEPSTQDGNGHGTHVAGTIAALDNSIGVLGVAPSEALYAVKVLGASGSGSVSSIAQGLEWAGNNGMHVANLSLGSPSPSATLEQAVNSATSRGVLVVAASGNSGAGSISYPARYANAMAVGATDQNNNRASFSQYGAGLDIVAPGVNILSTWPGSTYASLNGTSMATPHVAGAAALVKQKNPSWSNVQIRNHLKNTATSLGDTWEYGSGLVNAEAATR ; retrieve measured relative activity (initial increase in OD405).
0.0001

Param item = Thermostable alkaline protease BH0855 from Bacillus halodurans (protein) QTVPWGISFINTQQAHNRGIFGNGARVAVLDTGIASHPDLRIAGGASFISSEPSYHDNNGHGTHVAGTIAALNNSIGVLGVAPSADLYAVKVLDRNGSGSLASVAQGIEWAINNNMHIINMSLGSTSGSSTLELAVNRANNAGILLVGAAGNTGRQGVNYPARYSGVMAVAAVDQNGQRASFSTYGPEIEISAPGVNVNSTYTGNRYVSLSGTSMATPHVAGVAALVKSRYPSYTNNQIRQRINQTATYLGSPSLYGNGLVHAGRATQ ; retrieve measured relative activity (initial increase in OD405).
0.0053
